# assay-setup: in ethyl acetate, 318.15 K
endpoint-label: solubility (mole fraction)
Format: numeric value only, no unit, no commentary.

Examples with answers:
[
  {
    "smiles-string": "O=C(/C=C/c1cn(-c2ccccc2)nc1-c1cccc([N+](=O)[O-])c1)c1nc2ccccc2[nH]1",
    "solubility (mole fraction)": 0.00217
  },
  {
    "smiles-string": "O=C(/C=C/c1cn(-c2ccccc2)nc1-c1ccccc1Cl)c1nc2ccccc2[nH]1",
    "solubility (mole fraction)": 0.00135
  }
]

query: Return reported solubility (mole fraction); argument: O=C(/C=C/c1cn(-c2ccccc2)nc1-c1ccc(Cl)cc1)c1nc2ccccc2[nH]1
result: 0.000432

query: Return reported solubility (mole fraction); argument: COc1ccc(-c2nn(-c3ccccc3)cc2/C=C/C(=O)c2nc3ccccc3[nH]2)cc1OC
result: 0.000554

query: Return reported solubility (mole fraction); argument: COc1ccc(-c2nn(-c3ccccc3)cc2/C=C/C(=O)c2nc3ccccc3[nH]2)cc1
result: 0.000886

query: Return reported solubility (mole fraction); argument: O=C(/C=C/c1cn(-c2ccccc2)nc1-c1ccccc1)c1nc2ccccc2[nH]1
result: 0.000362

query: Return reported solubility (mole fraction); argument: COc1cccc(-c2nn(-c3ccccc3)cc2/C=C/C(=O)c2nc3ccccc3[nH]2)c1
result: 0.000317

---

The reader will find reported solubility (mole fraction) values listed item by item below.
# assay-setup: in methanol, 323.15 K
Format: numeric value only, no unit, no commentary.

Examples with answers:
[
  {
    "smiles-string": "COc1cccc(-c2nn(-c3ccccc3)cc2/C=C/C(=O)c2nc3ccccc3[nH]2)c1",
    "measurement": "5.15e-05"
  },
  {
    "smiles-string": "O=C(/C=C/c1cn(-c2ccccc2)nc1-c1ccc(Cl)cc1)c1nc2ccccc2[nH]1",
    "measurement": 0.000105
  },
  {
    "smiles-string": "O=C(/C=C/c1cn(-c2ccccc2)nc1-c1ccccc1Cl)c1nc2ccccc2[nH]1",
    "measurement": 0.000187
  },
  {
    "smiles-string": "O=C(/C=C/c1cn(-c2ccccc2)nc1-c1ccccc1)c1nc2ccccc2[nH]1",
    "measurement": 0.000115
  },
  {
    "smiles-string": "COc1ccc(-c2nn(-c3ccccc3)cc2/C=C/C(=O)c2nc3ccccc3[nH]2)cc1OC",
    "measurement": "5.5e-05"
  }
]

query: Return reported solubility (mole fraction); argument: O=C(/C=C/c1cn(-c2ccccc2)nc1-c1cccc([N+](=O)[O-])c1)c1nc2ccccc2[nH]1
result: 7.4e-05

query: Return reported solubility (mole fraction); argument: COc1ccc(-c2nn(-c3ccccc3)cc2/C=C/C(=O)c2nc3ccccc3[nH]2)cc1
result: 0.00017

---

# assay-setup: in ethanol, 308.15 K
The reader will find reported solubility (mole fraction) values listed item by item below.
Format: numeric value only, no unit, no commentary.

[
  {
    "smiles-string": "O=C(/C=C/c1cn(-c2ccccc2)nc1-c1ccccc1Cl)c1nc2ccccc2[nH]1",
    "solubility (mole fraction)": 0.000145
  },
  {
    "smiles-string": "COc1cccc(-c2nn(-c3ccccc3)cc2/C=C/C(=O)c2nc3ccccc3[nH]2)c1",
    "solubility (mole fraction)": 0.000106
  },
  {
    "smiles-string": "COc1ccc(-c2nn(-c3ccccc3)cc2/C=C/C(=O)c2nc3ccccc3[nH]2)cc1",
    "solubility (mole fraction)": 0.000385
  },
  {
    "smiles-string": "O=C(/C=C/c1cn(-c2ccccc2)nc1-c1ccccc1)c1nc2ccccc2[nH]1",
    "solubility (mole fraction)": 0.000106
  },
  {
    "smiles-string": "O=C(/C=C/c1cn(-c2ccccc2)nc1-c1cccc([N+](=O)[O-])c1)c1nc2ccccc2[nH]1",
    "solubility (mole fraction)": "7.01e-05"
  },
  {
    "smiles-string": "COc1ccc(-c2nn(-c3ccccc3)cc2/C=C/C(=O)c2nc3ccccc3[nH]2)cc1OC",
    "solubility (mole fraction)": "5.88e-05"
  }
]

query: Return reported solubility (mole fraction); argument: O=C(/C=C/c1cn(-c2ccccc2)nc1-c1ccc(Cl)cc1)c1nc2ccccc2[nH]1
result: 0.00012

---

The reader will find reported solubility (mole fraction) values listed item by item below.
# assay-setup: in methanol, 298.15 K
Format: numeric value only, no unit, no commentary.

Examples with answers:
[
  {
    "smiles-string": "O=C(/C=C/c1cn(-c2ccccc2)nc1-c1cccc([N+](=O)[O-])c1)c1nc2ccccc2[nH]1",
    "measurement": "4.04e-05"
  },
  {
    "smiles-string": "COc1ccc(-c2nn(-c3ccccc3)cc2/C=C/C(=O)c2nc3ccccc3[nH]2)cc1",
    "measurement": 0.000145
  },
  {
    "smiles-string": "O=C(/C=C/c1cn(-c2ccccc2)nc1-c1ccc(Cl)cc1)c1nc2ccccc2[nH]1",
    "measurement": "4.06e-05"
  },
  {
    "smiles-string": "COc1cccc(-c2nn(-c3ccccc3)cc2/C=C/C(=O)c2nc3ccccc3[nH]2)c1",
    "measurement": "2.71e-05"
  },
  {
    "smiles-string": "O=C(/C=C/c1cn(-c2ccccc2)nc1-c1ccccc1)c1nc2ccccc2[nH]1",
    "measurement": "5.54e-05"
  }
]

query: Return reported solubility (mole fraction); argument: COc1ccc(-c2nn(-c3ccccc3)cc2/C=C/C(=O)c2nc3ccccc3[nH]2)cc1OC
result: 3.04e-05

query: Return reported solubility (mole fraction); argument: O=C(/C=C/c1cn(-c2ccccc2)nc1-c1ccccc1Cl)c1nc2ccccc2[nH]1
result: 9.04e-05

---

# assay-setup: in acetonitrile, 298.15 K
endpoint-label: solubility (mole fraction)
Format: numeric value only, no unit, no commentary.

Examples with answers:
[
  {
    "smiles-string": "O=C(/C=C/c1cn(-c2ccccc2)nc1-c1ccccc1)c1nc2ccccc2[nH]1",
    "endpoint-label": "solubility (mole fraction)",
    "measurement": "5.71e-05"
  },
  {
    "smiles-string": "COc1cccc(-c2nn(-c3ccccc3)cc2/C=C/C(=O)c2nc3ccccc3[nH]2)c1",
    "endpoint-label": "solubility (mole fraction)",
    "measurement": "2.91e-05"
  },
  {
    "smiles-string": "O=C(/C=C/c1cn(-c2ccccc2)nc1-c1ccccc1Cl)c1nc2ccccc2[nH]1",
    "endpoint-label": "solubility (mole fraction)",
    "measurement": "1.78e-05"
  },
  {
    "smiles-string": "O=C(/C=C/c1cn(-c2ccccc2)nc1-c1cccc([N+](=O)[O-])c1)c1nc2ccccc2[nH]1",
    "endpoint-label": "solubility (mole fraction)",
    "measurement": 0.000103
  },
  {
    "smiles-string": "COc1ccc(-c2nn(-c3ccccc3)cc2/C=C/C(=O)c2nc3ccccc3[nH]2)cc1OC",
    "endpoint-label": "solubility (mole fraction)",
    "measurement": 0.000113
  },
  {
    "smiles-string": "O=C(/C=C/c1cn(-c2ccccc2)nc1-c1ccc(Cl)cc1)c1nc2ccccc2[nH]1",
    "endpoint-label": "solubility (mole fraction)",
    "measurement": 0.000116
  }
]

Next item in the queue.
query: Return reported solubility (mole fraction); argument: COc1ccc(-c2nn(-c3ccccc3)cc2/C=C/C(=O)c2nc3ccccc3[nH]2)cc1
result: 0.000165

---

# assay-setup: in n-propanol, 323.15 K
The reader will find reported solubility (mole fraction) values listed item by item below.
Format: numeric value only, no unit, no commentary.

query: Return reported solubility (mole fraction); argument: O=C(/C=C/c1cn(-c2ccccc2)nc1-c1ccc(Cl)cc1)c1nc2ccccc2[nH]1
result: 0.000158

query: Return reported solubility (mole fraction); argument: COc1ccc(-c2nn(-c3ccccc3)cc2/C=C/C(=O)c2nc3ccccc3[nH]2)cc1OC
result: 0.0002

query: Return reported solubility (mole fraction); argument: O=C(/C=C/c1cn(-c2ccccc2)nc1-c1ccccc1)c1nc2ccccc2[nH]1
result: 0.000226

---

The reader will find reported solubility (mole fraction) values listed item by item below.
# assay-setup: in n-propanol, 308.15 K

[
  {
    "smiles-string": "COc1ccc(-c2nn(-c3ccccc3)cc2/C=C/C(=O)c2nc3ccccc3[nH]2)cc1OC",
    "solubility (mole fraction)": 0.00015
  },
  {
    "smiles-string": "O=C(/C=C/c1cn(-c2ccccc2)nc1-c1ccccc1)c1nc2ccccc2[nH]1",
    "solubility (mole fraction)": 0.000179
  },
  {
    "smiles-string": "COc1cccc(-c2nn(-c3ccccc3)cc2/C=C/C(=O)c2nc3ccccc3[nH]2)c1",
    "solubility (mole fraction)": 0.000166
  },
  {
    "smiles-string": "O=C(/C=C/c1cn(-c2ccccc2)nc1-c1ccc(Cl)cc1)c1nc2ccccc2[nH]1",
    "solubility (mole fraction)": 0.000121
  },
  {
    "smiles-string": "O=C(/C=C/c1cn(-c2ccccc2)nc1-c1cccc([N+](=O)[O-])c1)c1nc2ccccc2[nH]1",
    "solubility (mole fraction)": 0.000164
  }
]

query: Return reported solubility (mole fraction); argument: COc1ccc(-c2nn(-c3ccccc3)cc2/C=C/C(=O)c2nc3ccccc3[nH]2)cc1
result: 0.000541

query: Return reported solubility (mole fraction); argument: O=C(/C=C/c1cn(-c2ccccc2)nc1-c1ccccc1Cl)c1nc2ccccc2[nH]1
result: 0.000177
